test: total protein half-life in vivo (active degradation + dilution); higher = more stable protein; conditions: E. coli NCM3722 delta-hslV; growth: N-lim chemostat; doubling time 6 h
Experimental Endpoint: total protein half-life in vivo
Give me the value, and tack the unit on after it.

Here are 5 sequences together with their reported answers.
MQENYKILVVDDDMRLRALLERYLTEQGFQVRSVANAEQMDRLLTRESFHLMVLDLMLPGEDGLSICRRLRSQSNPMPIIMVTAKGEEVDRIVGLEIGADDYIPKPFNPRELLARIRAVLRRQANELPGAPSQEEAVIAFGKFKLNLGTREMFREDEPMPLTSGEFAVLKALVSHPREPLSRDKLMNLARGREYSAMERSIDVQISRLRRMVEEDPAHPRYIQTVWGLGYVFVPDGSKA [P0AA16] :: 5.25 h
MSIKLIAVDMDGTFLSDQKTYNRERFMAQYQQMKAQGIRFVVASGNQYYQLISFFPEIANEIAFVAENGGWVVSEGKDVFNGELSKDAFATVVEHLLTRPEVEIIACGKNSAYTLKKYDDAMKTVAEMYYHRLEYVDNFDNLEDIFFKFGLNLSDELIPQVQKALHEAIGDIMVSVHTGNGSIDLIIPGVHKANGLRQLQKLWGIDDSEVVVFGDGGNDIEMLRQAGFSFAMENAGSAVVAAAKYRAGSNNREGVLDVIDKVLKHEAPFDQ :: 1.78 h
MKKFAAVIAVMALCSAPVMAAEQGGFSGPSATQSQAGGFQGPNGSVTTVESAKSLRDDTWVTLRGNIVERISDDLYVFKDASGTINVDIDHKRWNGVTVTPKDTVEIQGEVDKDWNSVEIDVKQIRKVNP [P0ADU5] :: 5.86 h
MKTLILFSTRDGQTREIASYLASELKELGIQADVANVHRIEEPQWENYDRVVIGASIRYGHYHSAFQEFVKKHATRLNSMPSAFYSVNLVARKPEKRTPQTNSYARKFLMNSQWRPDRCAVIAGALRYPRYRWYDRFMIKLIMKMSGGETDTRKEVVYTDWEQVANFAREIAHLTDKPTLK [P0ACB4] :: 6.54 h
MDNDKIDQHSDEIEVESEEKERGKKIEIDEDRLPSRAMAIHEHIRQDGEKELERDAMALLWSAIAAGLSMGASLLAKGIFQVELEGVPGSFLLENLGYTFGFIIVIMARQQLFTENTVTAVLPVMQKPTMSNVGLLIRLWGVVLLGNILGTGIAAWAFEYMPIFNEETRDAFVKIGMDVMKNTPSEMFANAIISGWLIATMVWMFPAAGAAKIVVIILMTWLIALGDTTHIVVGSVEILYLVFNGTLHWSDFIWPFALPTLAGNICGGTFIFALMSHAQIRNDMSNKRKAEARQKAERAENIKKNYKNPA :: 5.3 h

// sample MILFVGFLLMEIVMPQISRTALVPYSAEQMYQLVNDVQSYPQFLPGCTGSRILESTPGQMTAAVDVSKAGISKTFTTRNQLTSNQSILMNLVDGPFKKLIGGWKFTPLSQEACRIEFHLDFEFTNKLIELAFGRVFKELAANMVQAFTVRAKEVYSAR [P0AGL5] , its total protein half-life in vivo was 0.542 h

// sample MRLEFSIYRYNPDVDDAPRMQDYTLEADEGRDMMLLDALIQLKEKDPSLSFRRSCREGVCGSDGLNMNGKNGLACITPISALNQPGKKIVIRPLPGLPVIRDLVVDMGQFYAQYEKIKPYLLNNGQNPPAREHLQMPEQREKLDGLYECILCACCSTSCPSFWWNPDKFIGPAGLLAAYRFLIDSRDTETDSRLDGLSDAFSVFRCHSIMNCVSVCPKGLNPTRAIGHIKSMLLQRNA , its total protein half-life in vivo was 5.6 h

// sample MSKCSADETPVCCCMDVGTIMDNSDCTASYSRVFANRAEAEQTLAALTEKARSVESEPCKITPTFTEESDGVRLDIDFTFACEAEMLIFQLGLR [P0AD33] , its total protein half-life in vivo was 2.32 h

// sample METKNLTIGERIRYRRKNLKHTQRSLAKALKISHVSVSQWERGDSEPTGKNLFALSKVLQCSPTWILFGDEDKQPTPPVEKPVALSPKELELLELFNALPESEQDTQLAEMRARVKNFNKLFEELLKARQRTNKR , its total protein half-life in vivo was 5.9 h

// sample MAIDENKQKALAAALGQIEKQFGKGSIMRLGEDRSMDVETISTGSLSLDIALGAGGLPMGRIVEIYGPESSGKTTLTLQVIAAAQREGKTCAFIDAEHALDPIYARKLGVDIDNLLCSQPDTGEQALEICDALARSGAVDVIVVDSVAALTPKAEIEGEIGDSHMGLAARMMSQAMRKLAGNLKQSNTLLIFINQIRMKIGVMFGNPETTTGGNALKFYASVRLDIRRIGAVKEGENVVGSETRVKVVKNKIAAPFKQAEFQILYGEGINFYGELVDLGVKEKLIEKAGAWYSYKGEKIGQGKANATAWLKDNPETAKEIEKKVRELLLSNPNSTPDFSVDDSEGVAETNEDF [P0A7G6] , its total protein half-life in vivo was 3.37 h

// sample MDLIYFLIDFILHIDVHLAELVAEYGVWVYAILFLILFCETGLVVTPFLPGDSLLFVAGALASLETNDLNVHMMVVLMLIAAIVGDAVNYTIGRLFGEKLFSNPNSKIFRRSYLDKTHQFYEKHGGKTIILARFVPIVRTFAPFVAGMGHMSYRHFAAYNVIGALLWVLLFTYAGYFFGTIPMVQDNLKLLIVGIIVVSILPGVIEIIRHKRAAARAAK [P0ABP6] , its total protein half-life in vivo was 3.74 h

// sample MSLFHLIAPSGYCIKQHAALRGIQRLTDAGHQVNNVEVIARRCERFAGTETERLEDLNSLARLTTPNTIVLAVRGGYGASRLLADIDWQALVARQQHDPLLICGHSDFTAIQCGLLAHGNVITFSGPMLVANFGADELNAFTEHHFWLALRNETFTIEWQGEGPTCRAEGTLWGGNLAMLISLIGTPWMPKIENGILVLEDINEHPFRVERMLLQLYHAGILPRQKAIILGSFSGSTPNDYDAGYNLESVYAFLRSRLSIPLITGLDFGHEQRTVTLPLGAHAILNNTREGTQLTISGHPVLKM , its total protein half-life in vivo was 4.05 h

// sample MTITDLVLILFIAALLAFAIYDQFIMPRRNGPTLLAIPLLRRGRIDSVIFVGLIVILIYNNVTNHGALITTWLLSALALMGFYIFWIRVPKIIFKQKGFFFANVWIEYSRIKAMNLSEDGVLVMQLEQRRLLIRVRNIDDLEKIYKLLVSTQ , its total protein half-life in vivo was 6.58 h

The reported numbers originate from the supplement of paper PMC11246515.
